Molecular target: T1, EsCas13d, nuclease-dead (Eubacterium siraeum, UniProt B0MS50, R295A;H300A;R849A;H854A)
T1 sequence: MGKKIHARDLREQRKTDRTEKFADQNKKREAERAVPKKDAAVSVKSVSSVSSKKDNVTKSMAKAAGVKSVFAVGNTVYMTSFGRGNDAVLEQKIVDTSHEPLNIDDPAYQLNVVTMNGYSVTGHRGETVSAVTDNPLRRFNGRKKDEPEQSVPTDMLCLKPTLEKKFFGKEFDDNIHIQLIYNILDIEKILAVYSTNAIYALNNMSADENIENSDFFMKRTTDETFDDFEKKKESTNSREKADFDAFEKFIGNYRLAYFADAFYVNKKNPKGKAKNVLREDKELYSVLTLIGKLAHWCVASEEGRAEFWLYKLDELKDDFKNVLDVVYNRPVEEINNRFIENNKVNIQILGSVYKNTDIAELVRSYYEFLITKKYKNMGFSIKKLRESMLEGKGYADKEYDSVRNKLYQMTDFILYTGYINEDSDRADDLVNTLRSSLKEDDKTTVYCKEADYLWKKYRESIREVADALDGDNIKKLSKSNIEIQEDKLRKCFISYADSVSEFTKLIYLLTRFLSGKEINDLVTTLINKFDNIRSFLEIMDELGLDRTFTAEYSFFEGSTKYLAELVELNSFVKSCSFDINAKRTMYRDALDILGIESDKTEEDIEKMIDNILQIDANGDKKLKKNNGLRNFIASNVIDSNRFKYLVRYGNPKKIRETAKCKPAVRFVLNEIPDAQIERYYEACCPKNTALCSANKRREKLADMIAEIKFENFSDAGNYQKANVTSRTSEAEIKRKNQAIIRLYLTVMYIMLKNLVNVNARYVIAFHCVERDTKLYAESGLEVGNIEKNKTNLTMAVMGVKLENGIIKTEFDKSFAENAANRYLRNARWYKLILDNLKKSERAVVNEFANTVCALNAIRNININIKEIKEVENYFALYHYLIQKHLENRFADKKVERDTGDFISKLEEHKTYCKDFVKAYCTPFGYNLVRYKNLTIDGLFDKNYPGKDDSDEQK
Test: crRNA (strand 1, pre-loaded); Mg2+; 40 mM Tris-HCl pH 7.5, 150 mM NaCl, 6 mM MgCl2, 1 mM DTT, 0.1% Tween-20, 0.2 mg/ml BSA; 25 C; 10 min per concentration, then washed
Conditions: tags: His6-TwinStrep-SUMO cleaved; N-terminal SNAP kept (SNAP-Surface 488); label: 3' end held by stalled T7 RNA polymerase
assay.endpoint: Kd (nM)
Write the answer as a number in nM, unit excluded.

Query block: Entry under review: target 1 MT 5'PFS GUG 3'PFS AUU (mixed) RNA 1: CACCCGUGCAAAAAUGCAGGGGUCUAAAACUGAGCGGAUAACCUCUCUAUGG RNA 2: GGGAAUGGAUCCACAUCUACGAAUUCGUGCCAUAGAGAGGUUAUCCGCUCAAUUAGAUCGGAAGAGCACACGU . Reported Kd?
Result block: 15.8

Query block: Entry under review: target 3 insA 3' of 6,insU 3' of 3 (mixed) RNA 1: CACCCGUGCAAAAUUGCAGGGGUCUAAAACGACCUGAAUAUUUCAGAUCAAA RNA 2: GGGAAUGGAUCCACAUCUACGAAUUCGUUUUUGAUCUGAAAUAUUCAAGGUUCUGCAGAUCGGAAGAGCACACGU . Reported Kd?
Result block: 5.25

Query block: Entry under review: target 1 U3A,A9U (mixed) RNA 1: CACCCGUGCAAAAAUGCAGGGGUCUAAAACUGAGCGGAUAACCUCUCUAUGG RNA 2: GGGAAUGGAUCCACAUCUACGAAUUCGUACCAUAGAGAGGUUUUCCGCACACCGAGAUCGGAAGAGCACACGU . Reported Kd?
Result block: 10.8

Query block: Entry under review: target 2 MT 5'PFS CGC 3'PFS UAA (mixed) RNA 1: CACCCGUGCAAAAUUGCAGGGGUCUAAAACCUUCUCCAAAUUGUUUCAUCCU RNA 2: GGGAAUGGAUCCACAUCUACGAAUUCCGCAGGAUGAAACAAUUUGGAGAAGUAAAGAUCGGAAGAGCACACGU . Reported Kd?
Result block: 3.9

Recorded values, source paper PMC10786891.
